These measurements were taken from the supplement of paper PMC9663587.

Give GRmax, 72 h for every item shown.
# Tested on: SUM159
# protocolDetails: GRmax, 72 h; higher = less effect;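 also: breast cell lines in 384-well plates, nine doses across a 10^4 range, Dye Drop imaging of viable cells vs DMSO and time-zero plates, GR 0 means no net growth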
Give bare numbers, in GR.

Could you report GRmax, 72 h for every entry in the following list?
1. COc1cc(N2CCN(C)CC2)ccc1Nc1ncc2c(n1)N(C)c1ccccc1C(=O)N2CC(F)(F)F [FMF-03-146-1]
2. Cc1nc(NC(=O)N2CCC[C@H]2C(N)=O)sc1-c1ccnc(C(C)(C)C(F)(F)F)c1 [Alpelisib/BYL719] (max 10 µM)
3. O=C1NC(=O)[C@@H](c2cn3c4c(cccc24)CCC3)[C@@H]1c1c[nH]c2ccccc12 [Tivantinib/ARQ197] (max 10 µM)
4. CN(C)C/C=C/C(=O)Nc1ccc(C(=O)Nc2cccc(Nc3cc(-c4c[nH]c5ccccc45)ncn3)c2)cc1 [THZ-P1-2] (max 10 µM)

1: 0.898; 2: 0.602; 3: -0.281; 4: -0.394

Could you please provide reported GRmax, 72 h for COc1cc([C@@H]2c3cc4c(cc3[C@@H](O[C@@H]3O[C@@H]5CO[C@@H](C)O[C@H]5[C@H](O)[C@H]3O)[C@H]3COC(=O)[C@H]23)OCO4)cc(OC)c1O [Etoposide] (max 10 µM) ? Thanks!
-0.279
